Biological target: T1, human SIRPβ ECD recombinant protein (6×His tagged) (human, UniProt O00241 30-371)
T1 construct: extracellular domain; Bought from Sino Biological; also called hSIRPβ ECD; not shown: 6×His tag
T1 sequence (O00241 30-371): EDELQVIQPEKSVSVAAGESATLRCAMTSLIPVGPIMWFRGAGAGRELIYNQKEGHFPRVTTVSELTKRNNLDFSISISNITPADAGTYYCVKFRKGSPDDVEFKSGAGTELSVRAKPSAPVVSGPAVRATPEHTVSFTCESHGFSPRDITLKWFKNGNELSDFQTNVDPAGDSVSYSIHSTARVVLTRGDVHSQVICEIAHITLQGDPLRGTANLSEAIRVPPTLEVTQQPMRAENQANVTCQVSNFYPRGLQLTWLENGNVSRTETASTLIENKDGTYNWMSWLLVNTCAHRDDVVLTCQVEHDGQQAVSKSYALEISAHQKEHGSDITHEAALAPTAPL
Experiment: ELISA, hSIRPβ ECD
Measured TOP OD450 of individual entries
Number only, in OD450; omit the unit.

binder	units-symbol	value-reported
042c (antibody, V domains shown, also called chimeric antibody 042c) VH: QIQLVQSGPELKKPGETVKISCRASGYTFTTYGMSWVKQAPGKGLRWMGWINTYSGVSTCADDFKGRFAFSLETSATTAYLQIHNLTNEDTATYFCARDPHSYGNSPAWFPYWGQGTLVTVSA VL: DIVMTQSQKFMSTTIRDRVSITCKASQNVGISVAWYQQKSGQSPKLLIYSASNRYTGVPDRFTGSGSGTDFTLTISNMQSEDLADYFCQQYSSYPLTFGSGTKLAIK	OD450	3.23
059c (antibody, V domains shown, also called chimeric antibody 059c) VH: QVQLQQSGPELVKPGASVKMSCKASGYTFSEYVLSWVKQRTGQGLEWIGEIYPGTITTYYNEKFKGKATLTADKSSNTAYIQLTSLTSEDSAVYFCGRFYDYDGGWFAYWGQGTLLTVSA VL: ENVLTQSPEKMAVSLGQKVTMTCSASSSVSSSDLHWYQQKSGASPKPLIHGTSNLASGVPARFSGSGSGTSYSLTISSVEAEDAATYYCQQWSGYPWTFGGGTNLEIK	OD450	2.75
073c (antibody, V domains shown, also called chimeric antibody 073c) VH: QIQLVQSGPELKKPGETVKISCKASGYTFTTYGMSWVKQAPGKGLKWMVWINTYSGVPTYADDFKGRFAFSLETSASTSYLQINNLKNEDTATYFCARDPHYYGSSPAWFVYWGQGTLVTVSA VL: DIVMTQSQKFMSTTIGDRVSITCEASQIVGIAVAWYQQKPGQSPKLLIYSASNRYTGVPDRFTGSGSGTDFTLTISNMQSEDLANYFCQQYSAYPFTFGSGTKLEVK	OD450	3.07
015c (antibody, V domains shown, also called chimeric antibody 015c) VH: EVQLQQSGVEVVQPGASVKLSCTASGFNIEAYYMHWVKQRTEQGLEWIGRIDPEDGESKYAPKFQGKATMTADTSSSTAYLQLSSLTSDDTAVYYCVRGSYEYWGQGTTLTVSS VL: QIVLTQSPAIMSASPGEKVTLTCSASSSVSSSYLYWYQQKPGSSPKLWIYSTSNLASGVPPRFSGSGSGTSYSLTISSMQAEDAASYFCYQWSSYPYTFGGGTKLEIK	OD450	2.97
hu1H9G4 (antibody, V domains shown) VH: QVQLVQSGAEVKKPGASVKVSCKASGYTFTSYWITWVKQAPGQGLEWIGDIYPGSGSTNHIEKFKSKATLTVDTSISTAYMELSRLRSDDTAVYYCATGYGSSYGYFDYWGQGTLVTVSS VL: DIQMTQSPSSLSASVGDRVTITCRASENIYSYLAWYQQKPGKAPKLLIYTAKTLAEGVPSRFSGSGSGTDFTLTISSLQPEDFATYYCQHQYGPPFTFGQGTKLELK	OD450	3.22
071c (antibody, V domains shown, also called chimeric antibody 071c) VH: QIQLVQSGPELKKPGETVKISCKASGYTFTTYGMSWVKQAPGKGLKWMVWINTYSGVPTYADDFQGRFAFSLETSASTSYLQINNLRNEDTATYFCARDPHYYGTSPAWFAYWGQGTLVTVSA VL: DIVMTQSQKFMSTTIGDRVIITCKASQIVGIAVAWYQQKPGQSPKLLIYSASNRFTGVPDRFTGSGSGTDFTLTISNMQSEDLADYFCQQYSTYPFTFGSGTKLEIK	OD450	2.98

The reported value for 025c (antibody, V domains shown, also called chimeric antibody 025c; parental antibody of 025c) VH: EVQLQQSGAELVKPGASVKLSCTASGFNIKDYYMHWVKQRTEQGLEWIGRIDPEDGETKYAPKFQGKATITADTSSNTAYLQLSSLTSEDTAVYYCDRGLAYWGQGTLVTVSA VL: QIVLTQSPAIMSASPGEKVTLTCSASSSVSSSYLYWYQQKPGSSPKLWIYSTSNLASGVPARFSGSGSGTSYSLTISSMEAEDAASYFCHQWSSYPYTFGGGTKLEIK in terms of TOP OD450 is 3.1
